Every entry's value here was drawn from the NIST ThermoML archive (doi:10.1016/j.tca.2013.08.016).

# refractive index values compiled below
- protocolSummary: refractive index (Na D-line) (dimensionless); φn = volume fraction of the nth substance listed
- measurementParameters: 293.15 K; 101 kPa; Liquid; Standard Abbe refractometry; φ2 = 0
Numbers after ± are expanded uncertainties.
parameter: refractive index

compound="CCO [ethanol] + CCCC[n+]1cccc(C)c1.F[B-](F)(F)F" testresult="1.36144 ± 0.00041"
compound="CO [methanol] + CCCC[n+]1cccc(C)c1.F[B-](F)(F)F" testresult="1.32843 ± 0.0004"
compound="CO [methanol] + CCCC[n+]1ccccc1.F[B-](F)(F)F" testresult="1.32843 ± 0.0004"
compound="CO [methanol] + CCCC[n+]1ccc(C)cc1.F[B-](F)(F)F" testresult="1.32843 ± 0.0004"
compound="CCO [ethanol] + CCCC[n+]1ccc(C)cc1.F[B-](F)(F)F" testresult="1.36144 ± 0.00041"
